- Species: Rattus norvegicus
- TEST NAME: Open TG-GATES - Regimen: Daily Repeat
- Assay type: toxicity, organism-based, Sprague-Dawley
- Design: regimen Daily Repeat, gender Male, age 6 weeks
- MEASUREMENT CONTEXT: in vivo, po, 1000 mg/kg, […], tissue Plasma, route gavage, dose level High, time 7 day
REPORTED PROPERTY: Cl (meq/L)
Provide only the numeric value, understood in meq/L.

Take a look at these entries with their results.
Asked: Entry COC1=CC(=O)C[C@@H](C)[C@]12Oc1c(Cl)c(OC)cc(OC)c1C2=O [GRISEOFULVIN] : reported Cl = ?
Given back: 103.8

Asked: // repeat for COc1ccc2[nH]c([S+]([O-])Cc3ncc(C)c(OC)c3C)nc2c1 (stereo not given) [OMEPRAZOLE] and report
Given back: 101.4

Asked: // repeat for CCOc1ccc(NC(=O)CC(C)O)cc1 (stereo not given) [BUCETIN] and report
Given back: 106.2

Next:
Asked: Entry NC(N)=Nc1nc(CSCCC(N)=NS(N)(=O)=O)cs1 [FAMOTIDINE] : reported Cl = ?
Given back: 103.6

Asked: // repeat for CCOC(=O)CCC(=O)O[C@H]1[C@H](O[C@@H]2[C@@H](C)[C@H](O[C@H]3C[C@@](C)(OC)[C@@H](O)[C@H](C)O3)[C@@H](C)C(=O)O[C@H](CC)[C@@](C)(O)[C@H](O)[C@@H](C)C(=O)[C@H](C)C[C@@]2(C)O)O[C@H](C)C[C@@H]1N(C)C [ERYTHROMYCIN ETHYLSUCCINATE] and report
Given back: 108.2

Source of measurements: ChEMBL document CHEMBL3885861
